Data provenance is the nanobody polyreactivity screen of Harvey et al. (2022).

- Measurement Description: yeast display, Sf9 membrane polyspecificity reagent, FACS + sequencing; frameworks hold sequencing errors
Property Label: polyreactivity (PSR sort gate)

These solved cases illustrate the format of a correct answer.
QVQLVESGGGLVQAGGSLRLSCAASGTTFPIYAMGWYRQAPGKERELVADITSTGSTDYADSVKGRFTISRDNAKNTVYLQMNSLKPEDTAVYYCAAAWKAYRRYGYWGQGTQVTVSS | high polyreactivity
QVQLVESGGGLVQAGGSLRLSCAASVSIFQKNARGWYRQAPGKERELVAVITRGGTSTYYADSVKGRFTISRDNAKNTVYLQMNSLKPEDTAVYDCAADSGFDTAPYDFWGQGTQVTVSS | low polyreactivity
QVQLVESGGGLVQAGGSLRLSCAASGFIFGDNAMGWYRQAPGKERELVAAINSGSRTSYADSVKGRFTISRDNAKNTVYLQMNSLKPEDTAVYYCAAESVSSGDNASRYDYWGQGTQVTVSS | low polyreactivity
QVQLQESGGGLVQAGGSLRLSCAASGSISSRDAMGWYRQAPGKEREFVATIASGTTTYYADSVKGSFTISRDNAENTVYLQTNSLKPEDTAVYYCAAPTIQIYPFYYWGQGTQVTVSC | high polyreactivity
QVQLVESGGGLVQAGGSLRLSCAASGSNFHLYAMGWYRQAPGKERELVADIDLSGGSTYYADSVKGRFTISRDNAKNTVYLQMNSLKPEDTAVYYCGADHVSSLGFDYWGQGTEVTVSS | low polyreactivity
QVQLVESGGGLVQAGGSLRLSCAASGIIFQVYAMGWYRQAPGKERELVAAISDDGSTNYADSVQGRFTISRDNAKNTGYLQMNSLKPEDTAVYYCAKDSWGRLYYRYDYWGQGTQVTVSS | low polyreactivity

Input: Sample "QVQLVESGGGLVQAGGSLRLSCAASGSIFNLNAMGWYRQAPGTEREFVAGITYSAGRTYYADSVKGRFTISRDNAKNTVYLQMNSLKPVDTAVYYCAARIYSKFTSYGILDSWGQGTQVTVSS" — what was its polyreactivity (PSR sort gate)?
Output: high polyreactivity

Input: Sample "QVHLVESGGGLVQAGGSLRLSCAASGIPLYFYAMGWYRQAPGKERELVAAISRGGRTYYADSVKGRFTISRDNAKYTVYLQMNSLKPEDTAVYYCAARYTSEYSAFDYWGQGTQVTVSS" — what was its polyreactivity (PSR sort gate)?
Output: low polyreactivity

Input: Sample "QVQLVESGGGLVQAGGSFRLSSAPSGSIFVVYAMGGYIQAPGKERELVAAITSGGSTYYADSVKGRFTISRDNAKNTVYLQMNSLKPEDTAVYYCATTYRDGVYELSTFDYWGQGTQVTVSS" — what was its polyreactivity (PSR sort gate)?
Output: low polyreactivity

Input: Sample "QVQLVESGGGLVQAGGSLRLSCAASGSIFVVYSMGWYRQAPGKERELVAAISWGIGSTYYADSVKGRFTISRDNAKNTVYLQMNSLKPEDTALYYCAADTDIVLYDYWGQGTQVTVSS" — what was its polyreactivity (PSR sort gate)?
Output: low polyreactivity

Input: Sample "QVQLVESGGGLVQAGGSLRLSCAASGSTFRTNAMGWYRQAPGKERELVAAITYRAGNTYYADSVKGRFTISRDNAKNTVYLQMNSLKPEDTAVYYCNAESLSFPARGRAYRYYYWGQGTQVTVSS" — what was its polyreactivity (PSR sort gate)?
Output: high polyreactivity

Input: Sample "QVQLVESGGGLVQAGGSLRLSCAASGFTFRYYAMGWYRQAPGKERELVAAITSGDSTYYADSVKGRFTISRDNAKNTVYLQMNSLKPEDTAVYYCAAYYYGYDYWGQGTQVTVSS" — what was its polyreactivity (PSR sort gate)?
Output: high polyreactivity

Input: Sample "QVQLEESGGGLVQAGGSLRLSCASSGSTFPYNAMGWYRQAPGKERELVAANTSGASTNYADSVKGRFTISRENAKNTVYLQMNRLKPEDTAVYYCAAQSFGKRIWSPRYQLNYWGQGTQVTVSS" — what was its polyreactivity (PSR sort gate)?
Output: low polyreactivity

Input: Sample "QVNLVESGGGLVQAGGSLRLSCAAYGRTFRTNAMRCNRQEPGKERELFAAITYSGDSTYYADSVKGRFTISRDNEKNTVYLQMNSLKPEDTAVYYCNARLLSGPGYDYWRQGTQVTVSS" — what was its polyreactivity (PSR sort gate)?
Output: low polyreactivity

====

- Measurement Description: yeast display, Sf9 membrane polyspecificity reagent, FACS + sequencing; frameworks hold sequencing errors
Property Label: polyreactivity (PSR sort gate)

These solved cases illustrate the format of a correct answer.
QVQLVESGGGLVQAGGSLRLSCAASGRTFDEYAMGWYRQAPGKERELVDAINSSGNTYYADSVKGRFTISRDNAKNTVYLQMNSLKPEDTAVYYCAVRSYNTIYDDMDYWGQGTQVTVSS | low polyreactivity
QVQLVESGGGLVQAGGSLRLSCAASGFIFGRYTMGWYRQAPWKERELVAAISGSGGRTYYADSVKGRFTISRDNAKNTVYLQMNSLKPEDTSVYYCATYGYFYYDYWGQGTQVTVSS | high polyreactivity
QVQLVESGGGLVQAGGRLRLSCAASGSIYDDYAMGWNRQAPGKEREFVAAIDYSGGSTYYADSVKGRFTISRDNAKNTVYFQKNSLKPEDTAVYYCAKEAITRTFQYRHDYWGQGTQVTVSS | low polyreactivity
QVQLLESGGGLVQAGGSLRLSCAASGSTFINNAMGWYRQAPGKERELVAAISGNADRTYYADSVKGRFTISRDYAKNTVYLQMISLKPEDTAVYYCNALSLLSDGAASVDQVTFDYWGQGTQVTVSS | low polyreactivity

Input: Sample "QVKLVESGGGLVQAGGSLRLTCAASGSTLYAYAMGRYRQAPGKERELVAAISSRAVRTYYADSVKGRFTISRDNAKNTVYLQINSLKPEDTAVYYCAARGQAYSGDRMYYWGQGTQVTVSS" — what was its polyreactivity (PSR sort gate)?
Output: high polyreactivity

Input: Sample "QVQLVESGAGLVQAGGSLRLSSAASGLTFQTYAMGCYRQAPGKEREYVATISNGSSTYYADSVKGRFTISRDNAKNTVYFQMNILKPEDTAVYYCAKDYYYSRNQLYGHDYWGQGPQVTVSS" — what was its polyreactivity (PSR sort gate)?
Output: low polyreactivity

Input: Sample "QVQLVESGGGLVQAGGSLRLSCAASGGTFLINAMGWYRQAPGKERELVATITSGGTTYYADSVKGRFTISRDNAKNTVYLQMNSLKPEDTAVYYCATRGKGRYGYDSWGQGTQVTVSS" — what was its polyreactivity (PSR sort gate)?
Output: low polyreactivity

Input: Sample "QVQLVESGGGLVQAGGSLRLSCAASGRNFRYYAMGWYRPAPGKERELVAAISGSGGSTYYADSVKGRFTISRDNAKNTVYLQMNSLKPEDTAVYYCNARYRIPSGEGDHWGQGTQVTVSS" — what was its polyreactivity (PSR sort gate)?
Output: low polyreactivity

Input: Sample "QVQLVESGGGLVQAGGSLRLSCAASGSTFPYYAMGWYRQAPGKERELVAAISRGDSTNYADSVKGRFTISRDNAKNTVYLQMNSLKPEDTAVYYCAARLQYRRTSVKYYYWGQGTQVTVSS" — what was its polyreactivity (PSR sort gate)?
Output: high polyreactivity

Input: Sample "QVQLVESGGGLVQAGGSLRLSCAASGSTLGRNAMGWDRQAPGKERELVASITRSGGSTYYADSVKGRFTISRDNAKNTVYLQMNSLKPEDTAVYYCAAEVQGQVGEFDYWGQGTQVTVSS" — what was its polyreactivity (PSR sort gate)?
Output: low polyreactivity

Input: Sample "QVQLVESGGGLVQAGGSLRLSCAASGFTFWYYAMGWYRQAPGKERELVAAITYTGDRTYYADSVKGRFTISRDNAKNTVYLQMNSLKREDTAVYYCDVYLGIRSGTANDYWGQGTQVTVSS" — what was its polyreactivity (PSR sort gate)?
Output: high polyreactivity

Input: Sample "QVQLVESGGGLVQAGGSLRLSCAASGTTLYYYAMGWSRQAPGKERELVASITKSGASTYYADSVKGRFTISRDNAKNTVYLQMNSLKPEDTAVYYCARDPFWRGYTPRHYNYWGQGTQVTVSS" — what was its polyreactivity (PSR sort gate)?
Output: low polyreactivity

Input: Sample "QVQLVESGGGLVQAGGSLRLSCAASGRTFPVNAMGWYRQAPGKEREFVAVISSTGTTYYADSVKGRFTISLDNAKITVYLQMNSLKPEDTAVYYCARRSNRRAYVNRVGVLRTVDYWGQGTQVTVSS" — what was its polyreactivity (PSR sort gate)?
Output: low polyreactivity

Input: Sample "QVQLVESGGGLVQAGGSLRLSCAASGLIFPGYAMGWYRPAPGKERELVAAISGSGGSTYYADSVKGRFTISRDNAKNTVYLQMNSLKPEDTAVYYCSTSGPQYYSRNFDYWGQGTQVTVSS" — what was its polyreactivity (PSR sort gate)?
Output: low polyreactivity

Input: Sample "QVQHVESGGGLVQAGGSLRLSCAASGITFVLNSMGWSRPAPGKERELVAAIDTSGADTYYADSVKGRFTISRDNAKNTVYLQMNSLKPEDTAVYYCAAETITDDSYEYDYWGQGTQVTVSS" — what was its polyreactivity (PSR sort gate)?
Output: low polyreactivity

Input: Sample "QVQLVESGGGLVQAGGSLRLSCAASGSIFYWNTMGWYRQAPGKERELVAAIRRGGNTYYADSVKGRFTISRDNAKNTVYLQMNCLKPEDTAVYYCNRDGTYVYHGGEYWGQGTQVTVSS" — what was its polyreactivity (PSR sort gate)?
Output: low polyreactivity

Input: Sample "QVQLVESGGGLVHAGGSLRLSCAASGGTFGHYTMGWYRQAPGKERELVAAISGSGGTTYYADSVKGRFTISRDNAKNTVYLQMNSLKPEDTAVYYCAAYSGAYRKWLYDYWGQGTQVTVSS" — what was its polyreactivity (PSR sort gate)?
Output: high polyreactivity
